Taken from patent US4020111A.

- System: mice
- protocol.details: synergism of acute toxicity of Dimetilan, GS 13005, Secobarbital and Methadone (intraperitoneal)
- Type: in vivo, Swiss albino white male mice
- test.settings: Methadone 32 mg/kg + synergist 215 mg/kg
# mice lethality (number dead) listing for each entry below

>  <molecule>
C#CCOCc1c(Cl)cccc1Cl

>  <mice lethality (number dead)>
4

$$$$
>  <molecule>
CCOCCOCCOC(C)Oc1ccc2c(c1)OCO2 (stereo not drawn) [Sesoxane, reference compound]

>  <mice lethality (number dead)>
5

$$$$
>  <molecule>
C#CCOCc1ccc(Cl)c(Cl)c1Cl

>  <mice lethality (number dead)>
2

$$$$
>  <molecule>
C#CCOCc1ccccc1[N+](=O)[O-]

>  <mice lethality (number dead)>
0

$$$$
>  <molecule>
C#CCOCc1ccc(Cl)cc1[N+](=O)[O-]

>  <mice lethality (number dead)>
3

$$$$
>  <molecule>
C#CCOCc1c(Cl)cccc1[N+](=O)[O-]

>  <mice lethality (number dead)>
2

$$$$

* * *

# number of mice dead listing for each entry below
- Test system: mice
- protocol.details: synergism of acute toxicity of Dimetilan, GS 13005, Secobarbital and Methadone (intraperitoneal)
- Assay type: in vivo, Swiss albino white male mice
- test.settings: Dimetilan 8 mg/kg + synergist 80 mg/kg ip, 48 hours, of eight mice
measured.property: number of mice dead

>  <structure>
C#CCOCc1c(Cl)cccc1Cl

>  <recorded.number>
0

$$$$
>  <structure>
C#CCON=C(C)c1ccc2ccccc2c1

>  <recorded.number>
0

$$$$
>  <structure>
C#CCOCc1ccc(Cl)c([N+](=O)[O-])c1

>  <recorded.number>
0

$$$$
>  <structure>
C#CCOCc1c(Cl)cccc1[N+](=O)[O-]

>  <recorded.number>
0

$$$$
>  <structure>
C#CCOCc1cccc(Cl)c1[N+](=O)[O-]

>  <recorded.number>
0

$$$$
>  <structure>
C#CCON=Cc1cccc([N+](=O)[O-])c1

>  <recorded.number>
1

$$$$

* * *

- Tested on: mice
- protocol.details: extension of Secobarbital sleeping time by synergists
- Type: in vivo, Swiss albino white male mice
- test.settings: Secobarbital 37 mg/K, synergist 110 mg/K
Would you please tag the item Yes when its Mean Sleeping Time is 60 min or above, and No when it is below?

>  <structure>
C#CCON=Cc1cccc2ccccc12

>  <assigned.label>
Yes

$$$$
>  <structure>
C#CCOCc1ccc([N+](=O)[O-])cc1Cl

>  <assigned.label>
No

$$$$
>  <structure>
C#CCOCc1c(Cl)ccc(Cl)c1Cl

>  <assigned.label>
No

$$$$
>  <structure>
C#CCOCc1c(Cl)cccc1[N+](=O)[O-]

>  <assigned.label>
No

$$$$
>  <structure>
C#CCON=C(C)c1ccc(Cl)cc1

>  <assigned.label>
No

$$$$
>  <structure>
C#CCOCc1cccc2ccccc12

>  <assigned.label>
Yes

$$$$
>  <structure>
C#CCOCc1ccccc1[N+](=O)[O-]

>  <assigned.label>
No

$$$$
>  <structure>
C#CCON=Cc1ccc(N(C)C)cc1

>  <assigned.label>
Yes

$$$$
>  <structure>
C#CCn1nc(Cl)c2ccccc21

>  <assigned.label>
No

$$$$
>  <structure>
C#CCOCc1ccc(Cl)c([N+](=O)[O-])c1

>  <assigned.label>
No

$$$$
>  <structure>
C#CCOCc1ccc(Cl)c(Cl)c1

>  <assigned.label>
No

$$$$
>  <structure>
C#CCON=Cc1ccc(Cl)cc1Cl

>  <assigned.label>
No

$$$$
>  <structure>
C#CCOCc1ccc([N+](=O)[O-])cc1

>  <assigned.label>
Yes

$$$$
>  <structure>
C#CCOCc1cccc([N+](=O)[O-])c1Cl

>  <assigned.label>
No

$$$$
>  <structure>
C#CCOCc1ccc(Cl)cc1[N+](=O)[O-]

>  <assigned.label>
No

$$$$
>  <structure>
C#CCn1ncc2ccc(Cl)cc21

>  <assigned.label>
No

$$$$
>  <structure>
C#CCOCc1cccc(Cl)c1[N+](=O)[O-]

>  <assigned.label>
No

$$$$
>  <structure>
C#CCON=Cc1cccc([N+](=O)[O-])c1

>  <assigned.label>
Yes

$$$$
>  <structure>
C#CCOCc1cc(Cl)c(Cl)cc1Cl

>  <assigned.label>
No

$$$$
>  <structure>
C#CCON=C(C)c1ccc2ccccc2c1

>  <assigned.label>
Yes

$$$$
>  <structure>
C#CCn1ncc2cc([N+](=O)[O-])ccc21

>  <assigned.label>
No

$$$$
>  <structure>
C#CCOCc1c(Cl)cccc1Cl

>  <assigned.label>
No

$$$$
>  <structure>
C#CCOCc1ccc([N+](=O)[O-])c(Cl)c1

>  <assigned.label>
No

$$$$
